Assay: Toxicity liver stage against HepG2, at 10uM
Type: cell-based
Set-up: test concentration 10 uM, cell line HepG2-A16-CD81EGFP
Details: human, HepG2-A16-CD81EGFP cells; read-out: INHIBITION
Observation type: cytotoxicity at 10 µM
Just the number plus its unit, please.

Query: What does the record list as cytotoxicity at 10 µM for CCOc1cc(CN(C)CC(=O)O)ccc1OC(F)F ?
Reply: 7.99%

Query: What does the record list as cytotoxicity at 10 µM for CC(C)Nc1ncccc1C(=O)NCc1cnc(N(C)C)n1C ?
Reply: -10.1%

Query: What does the record list as cytotoxicity at 10 µM for COc1cccc(N2CCN(CCC(=O)NC3CCCC3)CC2)c1 ?
Reply: -5.93%

Query: What does the record list as cytotoxicity at 10 µM for c1ccc(-c2cc(CNCCN3CCOCC3)c3nnnn3c2)cc1 ?
Reply: -17.6%

Query: What does the record list as cytotoxicity at 10 µM for CCS(=O)(=O)Cc1nnnn1-c1ccccc1 ?
Reply: 2.7%

Query: What does the record list as cytotoxicity at 10 µM for CC1CN(c2ccc(CNC(=O)NCCO)cn2)CCO1 (centres undefined) ?
Reply: 6.15%

Query: What does the record list as cytotoxicity at 10 µM for CN(CCO)C[C@@H]1CN(C2CCN(c3ccccc3Cl)CC2)C[C@@H]1CO ?
Reply: -9.22%

Query: What does the record list as cytotoxicity at 10 µM for O=C(c1cccs1)N1CCCn2cnc(COCC3CC3)c2C1 ?
Reply: -81.3%

Query: What does the record list as cytotoxicity at 10 µM for CC(C)COC(C)C(=O)NCc1ccccc1Cn1ccnc1 (centres undefined) ?
Reply: 4.9%

Query: What does the record list as cytotoxicity at 10 µM for COCC(=O)N1CCCn2c(CN3CCOCC3)nnc2C1 ?
Reply: -131%

Query: What does the record list as cytotoxicity at 10 µM for Cc1nc2ccc(C(=O)N3CCN(CCO)[C@@H]4CS(=O)(=O)C[C@@H]43)cc2o1 ?
Reply: -1.32%

Query: What does the record list as cytotoxicity at 10 µM for Cc1ccc(S(=O)(=O)N2CCC(S(=O)(=O)c3nncn3C)CC2)cc1C ?
Reply: -6.9%

Query: What does the record list as cytotoxicity at 10 µM for CCN1CCCc2cc(-c3cncn3C(C)CN3CCOCC3)ccc21 (centres undefined) ?
Reply: 12.6%

Query: What does the record list as cytotoxicity at 10 µM for Cc1ccccc1CC(=O)N1CCc2c(ncnc2N2CCOCC2)C1 ?
Reply: -3.39%

Query: What does the record list as cytotoxicity at 10 µM for Fc1cccc(CN2CCC(c3noc(-c4ccccn4)n3)CC2)c1F ?
Reply: -12.8%

Query: What does the record list as cytotoxicity at 10 µM for OC[C@@H]1CCCN1c1nccc(-c2c[nH]nc2-c2ccncc2)n1 ?
Reply: -4.28%

Query: What does the record list as cytotoxicity at 10 µM for CCOc1cc(CN[C@@H]2COC[C@H]2Cc2cc(C)no2)ccc1O ?
Reply: 14.8%

Query: What does the record list as cytotoxicity at 10 µM for O=C(NCC1Cn2nnc(-c3ccsc3)c2CO1)c1ccc[nH]1 (centres undefined) ?
Reply: 2.28%

Query: What does the record list as cytotoxicity at 10 µM for CCC(NC(=O)CCNC(=O)c1ccccc1F)c1cc(C)ccn1 (centres undefined) ?
Reply: -11.4%

Query: What does the record list as cytotoxicity at 10 µM for O=C(c1ccc(Cl)o1)N1CCCN(Cc2cscn2)CC1 ?
Reply: -1.08%

Query: What does the record list as cytotoxicity at 10 µM for CCc1nc(-c2cncnc2C2CCCNC2)no1 (centres undefined) ?
Reply: 1.73%

Query: What does the record list as cytotoxicity at 10 µM for CC1CN(CC(=O)Nc2nncs2)CCN1Cc1nccn1C (centres undefined) ?
Reply: -11.2%

Query: What does the record list as cytotoxicity at 10 µM for CCn1ncc(C(=O)N2CCN(CC3CCCO3)CC2)c1C (centres undefined) ?
Reply: -11.6%

Query: What does the record list as cytotoxicity at 10 µM for COC(=O)c1ccc(CNC(C)(C)c2ccccc2OC)o1 ?
Reply: -0.651%

Hey, just so you know, these numbers are from ChEMBL document CHEMBL4513216.
